Here, each record is paired with measured pIC50 data.
Target: FGFR4-WT (Homo sapiens (Human))
Sequence (P22455 22-802): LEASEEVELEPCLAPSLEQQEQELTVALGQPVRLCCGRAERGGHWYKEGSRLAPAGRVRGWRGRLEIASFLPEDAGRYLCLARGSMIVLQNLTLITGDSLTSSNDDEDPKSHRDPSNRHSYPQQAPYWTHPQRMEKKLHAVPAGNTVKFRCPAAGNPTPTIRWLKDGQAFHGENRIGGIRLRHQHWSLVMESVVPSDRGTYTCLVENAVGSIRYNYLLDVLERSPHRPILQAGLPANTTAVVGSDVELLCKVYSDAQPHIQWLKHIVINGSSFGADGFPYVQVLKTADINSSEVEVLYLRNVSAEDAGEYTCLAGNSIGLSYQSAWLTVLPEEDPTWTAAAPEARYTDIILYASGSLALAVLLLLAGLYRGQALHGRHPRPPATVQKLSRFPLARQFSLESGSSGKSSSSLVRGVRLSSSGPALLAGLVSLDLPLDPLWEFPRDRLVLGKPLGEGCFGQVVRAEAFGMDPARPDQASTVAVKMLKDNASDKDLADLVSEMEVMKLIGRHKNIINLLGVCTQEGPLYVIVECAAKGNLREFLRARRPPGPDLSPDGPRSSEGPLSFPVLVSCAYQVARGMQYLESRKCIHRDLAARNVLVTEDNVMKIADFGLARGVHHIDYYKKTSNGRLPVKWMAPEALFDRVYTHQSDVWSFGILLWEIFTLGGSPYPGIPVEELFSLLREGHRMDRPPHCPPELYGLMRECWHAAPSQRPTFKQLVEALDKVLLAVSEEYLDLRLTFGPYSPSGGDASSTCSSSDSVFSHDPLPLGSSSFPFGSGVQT
Experiment: Omnia assay for potency assessment against FGFR4 enzyme
Type: biochemical
Conditions: method a: Invitrogen FGFR4-WT 10 nM, ATP 300 uM, Y10-Sox 10 uM; read-out: FGFR4 IC50
pIC50: −log10 of the molar value.

{"compound": "C=CC(=O)NC1CCCCC1Nc1ncc2c(n1)N(Cc1cscn1)C(=O)N(c1c(Cl)c(OC)cc(OC)c1Cl)C2 (racemic) [I-69]", "assay system": "FGFR4-WT (Homo sapiens (Human))", "observation type": "pIC50", "reported value": "> 7.00"}
{"compound": "C=CC(=O)NC1CCCC1Nc1ncc2c(n1)N(C)C(=O)N(c1c(Cl)c(OC)cc(OC)c1Cl)C2 (racemic) [I-112]", "assay system": "FGFR4-WT (Homo sapiens (Human))", "observation type": "pIC50", "reported value": "> 7.00"}
{"compound": "CCC(=O)N[C@H]1CCCC[C@H]1Nc1ncc2c(n1)N(Cc1cscn1)C(=O)N(c1c(Cl)c(OC)cc(OC)c1Cl)C2 [I-118]", "assay system": "FGFR4-WT (Homo sapiens (Human))", "observation type": "pIC50", "reported value": "< 6.00"}
{"compound": "C=CC(=O)NC1CCCCC1Nc1ncc2c(n1)N(CC#N)C(=O)N(c1c(Cl)c(OC)cc(OC)c1Cl)C2 (racemic) [I-47]", "assay system": "FGFR4-WT (Homo sapiens (Human))", "observation type": "pIC50", "reported value": "> 7.00"}

What pIC50 value was documented for this compound, C=CC(=O)NC1CCCCC1Nc1ncc2c(n1)N(C)C(=O)N(c1cc(OC)cc(OC)c1Cl)C2 (racemic) [I-76] ? 6.00 to 6.30

Do the same for C=CC(=O)N(C)C1CCCCC1Nc1ncc2c(n1)N(C)C(=O)N(c1cc(OC)cc(OC)c1)C2 (racemic) [I-39] please < 6.00

Do the same for C=CC(=O)Nc1ccccc1Nc1ncc2c(n1)N(Cc1cnn(C)c1)C(=O)N(c1c(Cl)c(OC)cc(OC)c1Cl)C2 [I-149] please > 7.00
